System: UACC-62 melanoma
method: NCI-60 one-dose screen, 48 h
reported conditions: 10 µM unless noted
Procedure: Growth inhibition of the UACC-62 human tumor cell line is measured as a screen for anti-cancer activity. Cells are grown in 96 well plates and exposed to the test compound for 48 hours. Compounds are tested at a single concentration, which is 10^-5 M for most compounds. The reported endpoint is percent growth (GI% or GIPRCNT), where numbers from 0 - 100% represent growth inhibition, and numbers from -100% - 0 represent cell death. For example, a value of 40 represents 60% growth inhibition. […]
About 83,000 compounds went through this panel and 20% of them were active in at least one assay; those are over-represented in the sample as a whole. Activity calls are given as the source filed them. The calls were made as follows: active = growth percent below 10; inactive = the rest.
Classes used: yes for active, no for inactive

INSERT INTO results (compound, tested_target, category_label) VALUES
  ('COc1cccc(/C=C2\COc3ccc(O)c(O)c3C2=O)c1', 'UACC-62 melanoma', 'yes'),
  ('Clc1ccc(/C=N\N=C\c2ccc(Cl)c(Cl)c2)cc1Cl', 'UACC-62 melanoma', 'no'),
  ('O=C(c1ccccc1)c1ccc(C2CCCCC2)cc1', 'UACC-62 melanoma', 'no'),
  ('COC(=O)CC[C@H](C)[C@H]1CC[C@H]2[C@@H]3CC[C@@H]4CC5(CC[C@]4(C)[C@H]3CC(=O)[C@]12C)Nc1ccccc1NC5=NC(C)(C)C (stereo not given in full)', 'UACC-62 melanoma', 'no'),
  ('Cc1cc(C(=O)Nc2ncc(Cc3cccc(C(F)(F)F)c3)s2)c2ccccc2n1', 'UACC-62 melanoma', 'yes');

* * *

System: UACC-62 melanoma
method: NCI-60 one-dose screen, 48 h (100 = growth as untreated, 0 = no growth, -100 = all killed)
reported conditions: 10 µM unless noted
About 83,000 compounds went through this panel and 20% of them were active in at least one assay; those are over-represented in the sample as a whole. Activity calls are given as the source filed them. How the source made its calls: active means growth percent below 10; inactive means the rest.
Readings of growth for the listed compounds
endpoint name: growth

INSERT INTO assay_data (compound, endpoint_name, assay_value) VALUES
  ('CCC(C)(C)C(=O)O[C@H]1C[C@@H](C)C=C2C=C[C@H](C)[C@H](CC[C@@H]3CC(SCCN)CC(=O)O3)[C@H]21 (stereo partly specified)', 'growth', '84.3% (inactive)'),
  ('O=S(=O)(Nc1cc(F)cc(Cl)c1)c1ccc(-c2cnc(C3CC3)o2)cc1', 'growth', '35.1% (inactive)'),
  ('CCOC(=O)C#Cc1c(C(=O)OCC)nnn1Cc1ccc([N+](=O)[O-])cc1', 'growth', '76% (inactive)'),
  ('COc1ccccc1NC(=O)N=Nc1c(O)[nH]c2ccccc12', 'growth', '79.2% (inactive)'),
  ('Ic1ccc(OCCCCn2ccnc2)cc1', 'growth', '40.6% (inactive)'),
  ('Nc1cc(C(=O)NC[C@H]2CN(c3ccc(N4CCC(C(=O)O)CC4)cc3)C(=O)O2)ccc1Cl', 'growth', '95.8% (inactive)'),
  ('CCN(CC)CCCCCNc1cc(OC(=O)c2ccc(Cl)cc2)cc2cccnc12', 'growth', '98% (inactive)'),
  ('CSc1nc2ncc([N+](=O)[O-])c(=O)n2[nH]1', 'growth', '101% (inactive)'),
  ('N=C(N)c1ccc(-c2ccc(-c3ccccc3)o2)cc1', 'growth', '-70% (active)'),
  ('COc1ccc(Nc2ncc(Br)c(NCCCNC(=O)C3CCCC3)n2)cc1', 'growth', '46.2% (inactive)'),
  ('CN(C)Cc1ccc(O)c(C(=O)O)c1', 'growth', '104% (inactive)'),
  ('COc1cc2cc(NCc3cccc(Cl)c3)nc(C)c2cc1OC', 'growth', '14.4% (inactive)'),
  ('O=C(Nc1nc2ccccc2s1)c1ccc(F)cc1', 'growth', '89.5% (inactive)'),
  ('COC(=O)c1cc(N=C2NC(=O)/C(=C/C=C/c3ccccc3)S2)ccc1O', 'growth', '33.6% (inactive)'),
  ('Nc1n[nH]c2cccc(C#Cc3cccc(C(=O)Nc4cc(C(F)(F)F)cc(C(F)(F)F)c4)c3)c12', 'growth', '50% (inactive)'),
  ('CCOc1ccccc1Cn1ccnc1CCc1c(Cl)c(O)cc(O)c1C(=O)OC', 'growth', '92.1% (inactive)'),
  ('CCOC(=O)C1=C(c2ccccc2)N=C2SC=C(c3ccc(Cl)cc3)N2C1c1ccc(Cl)cc1 (stereo unspecified)', 'growth', '66.4% (inactive)'),
  ('Nc1ncnc2c1C(c1ccccc1)c1ccc3ccccc3c1O2 (stereo unspecified)', 'growth', '68.5% (inactive)'),
  ('C=CC(=O)N1CCN(c2cccc(Oc3nccc(Nc4nnc(-c5ccc(Br)cc5)s4)n3)c2)CC1', 'growth', '37% (inactive)'),
  ('CN1CCN(C(=O)c2ccc(NC(=O)c3cc4c(nn3)NCCN4Cc3cc(Cl)ccc3Cl)cc2)CC1', 'growth', '92.5% (inactive)'),
  ('Cc1nc2sc(C(=O)Nc3cccc4ccccc34)c(N)c2cc1C(O)c1ccccc1 (stereo unspecified)', 'growth', '17.8% (inactive)');
